The measurements presented in this section are drawn from ChEMBL document CHEMBL3351875.

Test: Volume of distribution in Sprague-Dawley rat at 2.5 mg/kg, iv measured during 1 to 24 hrs by LC-MS method
Assay type: ADME, organism-based
Design: dose 2.5 mg/kg, route intravenous
Details: in vivo
Measurement Kind: Vd (L/kg)
Give just the numeric value; L/kg need not be written.

**Query** Any idea what Vd was measured for Cc1cc(Br)cc2c1OC(C(F)(F)F)C(C(=O)O)=C2 (stereo unspecified) ?
**Result** 0.15
